Here the recorded EC50 is given for each entry.
biological target: GII.4 Houston 2002 (ABY27560.1) VLPs (UniProt P54635 1-539); assay: ELISA binding
measurement.label: EC50 (µg/mL)

NORO-115 (antibody, V domains shown) VH: QVQLVESGGGLVKPGGSLRLSCTASGITISGYYMSWIRQAPGKGLEWIVYINTSGRTIYYADSVKGRFSVSRDNAKESLYLQMDSLTVDDTGIYYCARDRLPASGSHWFHPWGQGTLVTVSS VL: DIVMTQSPDSLAVSLGGRATINCKSSQSVLYTSDNKNYLAWYQQQPGQPPKLLISWASTRESGVPDRFSGSGSGTDFTLTISNLQAEDVAVYYCQQYYNSPLAFGGGTKVEIK ... 1.1
NORO-315B (antibody, V domains shown) VH: QVQLVESGGGLVKPGGSLRLSCVASGFTFSDYYMTWFRQTPGRGLEWLSYISAIGGYTEYADSVKSRFIISRDNGKKSLYLQMNSLRAEDSGVYYCAREDCHGTSCYSGDWGQGTLVTVSS VL: QSVLTQPPSVSGAPGQRVTISCTGSSSNIGAGYDVHWYQQLPGTAPKLLIYHNTNRPSGVPDRFSGSKSGTSAYLTITGLQAEDEADYYCQSYDRSLSKSRVFSGGTKLTVL ... 0.5
NORO-296A (antibody, V domains shown) VH: QVQLVESGGGLVKPGGSLRLSCAASGFTFSEYYMSWVRQAPGKALEWVSYITSSFSSTSYADSVKGRFVISRDNAKNSLYLQMNSLRVEDTAVYYCARYGAEYGSRSFYFLDWGQGTLVTVSS VL: QSVLTQPPSVSGAPEQRVTISCTGSSSNIGAGYDVHWYQVLPGIAPKLLIYDNNKRPSGVPDRFSGSKSGTSASLAITGLQAEDEADYYCQSYDSRLSSNVVFGGGTKLTVL ... 0.1
NORO-123 (antibody, V domains shown) VH: QVQLVESGGGVVQPGRSLRLSCSTSGFTFSQYPMHWVRQAPGKGLEWVALISYDGMNKYYADSVRGRFTISRDNSENTQYLQMNSLRGDDTAVYYCARVTGDCTGNRCSYWAYYYYGLDVWGQGTLVTVSS VL: QSALTQPPSASGSPGQSVTISCTGTSSDVGGYKYVSWYQQHPGKAPKLMIYEVTRRPSGVPDRFSGSKSGNTAFLTVSGLQAEDEADYYCGSYAGSTTSGYVFGTGTKVIVL ... 0.6
NORO-250B (antibody, V domains shown) VH: QVQLVESGGGLVKPGGSLTLSCAASGFTFSDYYMNWIRQAPGKRLEWVSYISGIMSSTNYADSVKGRFTISRDTAKKSVYLQMNSLRAEDTAVYYCARATSQGATSYYFDSWGQGTLVTVSS VL: QSVLTQPPSVSGAPGQRVTISCTGSSSNIGADYDVHWYQQLPGAAPRLLIYADINRPSGVPDRFSGSKSGTSASLAITGLQAEDEADYYCQSYDRSVSGSAVFGGGTKVTVL ... 0.1
NORO-263 (antibody, V domains shown) VH: QVQLVESGGGLVKPGGSLRLSCAASGFTLSDYYMSWIRQAPGKGLEWVAYISSSHTSTYYRDSVKGRFTISRDSAKKSLYLQMNSLRVEDTAIYYCARDWVGGRSAYSDHWGQGTLVTVSS VL: SYELTQPPSVSVSPGQTARITCSGDALPRRPAFWYQQKSGQAPVLVMYDDSKRPSGIPERFSGSSSGTVATLTISGAQVEDEADYHCYSTDSSGKERVFGGGTKLTVL ... 0.5
NORO-251A (antibody, V domains shown) VH: QVQLVESGGGVVQPGRSLRLSCAASGFTFRSYGIHWVRQAPGKGLEWVALISYDGSSKYYADSVKGRFTISRDNSKNTLYLQMNSLRSEDTAVYYCAKVRLTSYSIGWFSFDYWGQGTLVTVSS VL: QSVLTQPPSVSAAPGQKVTISCSGSSSNIANYYVSWYQQLPGRAPKLLIYDNNKRPSGIPDRISGSKSGTSATLGITGLQTGDEADYYCGTWDTSLSAWVFGGGTKLTVL ... 0.3
NORO-202A.1 (antibody, V domains shown) VH: QVQLVQSGAEVKKPGASVKVSCKASEYTFTGYYLQWVRQAPGHGLEWMGWINPSGGTKYSQKFQGRVTMTRDTSITTVYMELSRLRSDDTAVYYCARDLLRNWGDHDAFDVWGQGTMVTVSS VL: QSVLTQPPSASETPGQGVTISCSGSSSNIGSNFVCWYQQVPGTAPKLLIYKNNQRPSGVPDRFSGSKSGTSASLAISGLRSEDEADYYCSAWDDSLSGPVFGGGTKLTVL ... 0.1
NORO-256A (antibody, V domains shown) VH: QVQLVESGGGVVQAGRSLRLSCAASGFTFRSYGMHWVRQAPGKGLEWVAIISYDGGSKYYADSVKGRFTISRDNSKNTLYLQMNSLRVEDTALYYCAKDFLRVYSYGWHSFDIWGLGTLVTVSS VL: QSVLTQPPSVSAAPGQRVTISCSGSSSNIGTYYVSWYQHLPGTAPKLLIYDNDKRPSGIPDRFSASKSGTSATLDIAGLQTGDEADYYCGTWDLSLTAGWVFGGGTKLTVL ... 0.4
NORO-279A (antibody, V domains shown) VH: QVQLVESGGGVVQPGRSLRLSCAASGFTFTKYGMHWVRQAPGKGLEWVAFIAYDGSVKYYGDSAKGRFAISRDNPKNTVYLQMNSLRAEDTAVYYCAKVEIHYYSNSLLGMDVWGQGTLVTVSS VL: QSVLTQPPSASGTPGQRVTISCSGGNSNIGISYVYWYQHLPGTAPKLLISKNNLRPSGVPDRFSASKSGTSASLAISGLRSEDEAEYYCATLDINMTWVFGGGTKLTVL ... 0.3

Source listed as patent US20210324050A1.
